- TEST_SUMMARY: Volume of distribution at steady state in dog at 0.5 mg/kg, iv
- Type: ADME, organism-based, Canis lupus familiaris
- Design: dose 0.5 mg/kg, route intravenous
- EXPERIMENTAL_SETUP: in vivo, read-out: Vdss
RESULT_TYPE: Vd (L/kg)
Hi! Could you send only the number? It should be in L/kg, unit omitted.

Fill in: Vd of "C[C@@]1(c2cc(F)cc(F)c2)CNC2(CCCC2)C(=O)N1CC(=O)Nc1cnc2c(c1)C[C@@]1(C2)C(=O)Nc2ncccc21" is ___ 0.67

---

- TARGET_OR_TEST_SYSTEM: Calcitonin gene-related peptide type 1 receptor (Homo sapiens, UniProt O60894+Q16602)
- Sequence (Q16602 whole entry, one chain of several): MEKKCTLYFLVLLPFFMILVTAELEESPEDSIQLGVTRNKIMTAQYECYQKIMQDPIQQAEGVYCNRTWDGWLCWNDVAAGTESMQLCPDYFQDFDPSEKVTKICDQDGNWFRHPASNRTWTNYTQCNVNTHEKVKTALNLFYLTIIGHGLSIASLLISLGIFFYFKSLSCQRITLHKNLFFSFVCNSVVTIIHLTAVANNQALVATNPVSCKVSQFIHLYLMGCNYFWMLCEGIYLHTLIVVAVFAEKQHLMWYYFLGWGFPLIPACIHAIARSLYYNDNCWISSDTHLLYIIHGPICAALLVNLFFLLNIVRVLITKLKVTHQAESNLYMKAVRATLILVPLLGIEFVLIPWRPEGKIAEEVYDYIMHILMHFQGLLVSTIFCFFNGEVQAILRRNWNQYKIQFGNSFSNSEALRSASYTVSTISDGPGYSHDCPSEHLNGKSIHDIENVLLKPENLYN
- TEST_SUMMARY: Antagonist activity at human CGRP receptor expressed in HEK293 cells assessed as inhibition of CGRP-induced cAMP response after 5 mins in the presence of 50% human serum
- Type: functional, cell-based
RESULT_TYPE: pIC50
Please report pIC50 as the negative decimal logarithm of the molar concentration, giving only the number.

Given "C[C@@]1(c2cc(F)cc(F)c2)CNC2(CCCC2)C(=O)N1CC(=O)Nc1cnc2c(c1)C[C@@]1(C2)C(=O)Nc2ncccc21" , state its recorded pIC50. 9.47
